The origin of these recorded values is PubChem BioAssay.

Assay: yeast growth modulation, basal conditions, primary screen, YJM789 clinical isolate, OD600, 24 h (AID 1089);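 note: growth of clinical yeast isolate S. cerevisiae YJM 789 seeded 1000 cells per well; test concentration not given here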
Details: S. cerevisiae YJM789 growth, higher = more signal, called active from +8 up or from −8 down

Compound	z-score
NCCCCCCNC(=O)[C@H]1C[C@H]2C(=O)N[C@@H](Cc3ccccc3)C(=O)N2[C@H]1c1ccc(O)cc1	-1.8
COCCOC(=O)N1C(=O)[C@@]2(c3cc(C#CCNC(N)=O)ccc31)[C@H](C(=O)N1CCCCCCC1)[C@H]1C(=O)O[C@H](c3ccccc3)[C@H](c3ccccc3)N1[C@@H]2c1ccc(O)cc1	0.355
CN(C)CCCNC(=O)[C@@H]1c2ccccc2C(=O)N(Cc2ccc(OC(F)(F)F)cc2)[C@H]1c1ccc(CO)cc1	-1.02
C=CC[C@]12N=C(c3ccc(OCCCO)cc3)O[C@H]1c1ccccc1N(C)C2=O	-0.167
NC(N)=NCc1cn(CCc2c[nH]c3ccccc23)nn1	-0.289
COc1ccc(NN2C(C(O)c3ccco3)C=CC3C(=O)N(C4CCCCC4)C(=O)C32)cc1 (stereo not given)	0.0039
CCOC(=O)C[C@H]1[C@H](OC(=O)c2ccccc2-c2ccccc2)[C@@H](NC(=O)CC(C)C)c2cc(OCCCO)ccc2N1C(=O)c1ccc2ccccc2n1	-0.0014
C=CC[C@@]1(C(=O)O)N=C(c2ccc(OCCCO)cc2)O[C@@H]1c1ccccc1	0.639
COC(=O)[C@H](Cc1ccccc1)N1CC(/C=C/C2CC2)=C[C@@H]1[C@@H](O)Cc1ccccc1	0.107
CN(C)C(=O)[C@@]1(Cc2ccccc2N=[N+]=[N-])COC(c2ccc(OCCCO)cc2)=N1	-1.85
CCOC(=O)C[C@H]1[C@H](OC(=O)Cc2ccc3c(c2)OCO3)[C@@H](NC(=O)C2CCCCC2)c2cc(OCCCO)ccc2N1C(=O)c1ccc2ccccc2n1	0.327
COCCOC(=O)N1C(=O)[C@@]2(c3cc(C#CC4(O)CCCCCC4)ccc31)[C@H](c1ccccc1OCCO)N1[C@H](c3ccccc3)[C@H](c3ccccc3)OC(=O)[C@H]1[C@@H]2C(N)=O	1.74
CC(C)C(=C=CC[C@@H](O)c1ccccc1OCCO)C[C@@H](O)COCc1ccccc1	-19.2
CCOC(=O)C[C@H]1[C@H](OC(=O)c2ccc(C(=O)c3ccccc3)cc2)[C@@H](NC(=O)c2ccc3ccccc3c2)c2cc(OCCCO)ccc2N1C(=O)c1ccccc1	-0.79
COC1(C)CN(Cc2ccccc2Br)[C@H](/C=C/c2ccccc2)[C@H](Cc2ccccc2)O1 (stereo not given in full)	-0.0969

###

Assay: small-molecule microarray binders of probe aShh, primary screen, biochemical, biotinylated probe, 635/667 nm fluorescence (AID 1114);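 note: probe is biotin-labelled aShh protein from a stem cell growth factor screen; measures binding of labelled protein to compounds printed on the slide; score merges feature fluorescence at 667 nm with signal-to-noise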
Settings: higher = more signal
Grouping key: composite z-score. Bins: low bracket = under -0.1, middle bracket = from -0.1 up to 0.1, high bracket = 0.1 and over

Molecule	Class
Cc1ccc(C(C)CC(O)C2C=CC3C(=O)N(c4ccccc4)C(=O)C3N2Nc2ccc(C(C)C)cc2)o1 (centres undefined)	middle bracket
C=CC1c2cc(O)c(OC)cc2CCN1Cc1sc2ccccc2c1Cl (centres undefined)	middle bracket
COC(=O)[C@@]1(Cc2ccc(OC)cc2)[C@H]2c3cc(C(=O)N(C)C)n(Cc4ccccc4)c3C[C@H]2CN1C(=O)c1ccccc1	low bracket
C=CCOC(=O)[C@@H]1[C@H]2C(=O)O[C@H](c3ccccc3)[C@H](c3ccccc3)N2[C@H](c2ccc(OCCOC(=O)[C@H]3C[C@H]4C(=O)N[C@@H](CCCC[N+](C)(C)C)C(=O)N4[C@H]3c3ccc(O)cc3)cc2)[C@@]12C(=O)Nc1ccc(I)cc12	high bracket
Cc1ccc(S[C@]2(C(=O)NC(C)C)CC(=O)N(Cc3ccccc3C(F)(F)F)[C@@H]2c2ccc(CO)cc2I)cc1	middle bracket
C=CCOC(=O)[C@@H]1[C@H]2C(=O)O[C@H](c3ccccc3)[C@H](c3ccccc3)N2[C@H](c2ccc(OCCOC(=O)[C@H]3C[C@H]4C(=O)N[C@@H](CCCCN(C)C)C(=O)N4[C@H]3c3cccc(OCCO)c3)cc2)[C@@]12C(=O)Nc1ccc(I)cc12	high bracket
CCC[C@@H]1C[C@@]1(CCC)[C@@H](NP(=O)(c1ccccc1)c1ccccc1)c1ccc(Cl)cc1	high bracket
O=C1OCC=C[C@H]2OC34C=CCN(Cn5nnc6ccccc65)C(=O)[C@H]3N(CCCCCCO)C(=O)[C@@H]4[C@@H]12 (some centres undefined)	low bracket
COCC(=C=CC[C@H](O)c1ccc(OCCO)cc1)C[C@H](O)COCc1ccccc1	low bracket
CC(C)(C)OC(=O)CC[C@]1(C(=O)NCCN2CCOCC2)N=C(c2ccc(OCCCO)cc2)O[C@H]1c1ccccc1	low bracket
CC[C@H]1C2=C3C(CC[C@H]4C(OCc5ccc(F)cc5C(F)(F)F)OC[C@](C)([C@@H]34)N(C(=O)OC(C)(C)C)C2)C2COC(=O)OCC21 (some centres undefined)	high bracket
CCCC[C@@H]1C[C@H]1[C@@H](NC(=O)c1cccnc1)c1ccc(-c2ccccc2)cc1	high bracket
CC(=O)n1cc(C(O)C2C=CC3C(=O)N(Cc4ccccc4)C(=O)C3N2n2cnnc2)c2ccccc21 (centres undefined)	middle bracket
O=C1O[C@H](c2ccccc2)[C@H](c2ccccc2)N2[C@H]1[C@@H](C(=O)O)[C@]1(C(=O)Nc3ccccc31)[C@H]2c1ccc(O)cc1	low bracket
